B1: glmS ribozyme (parent)
chain: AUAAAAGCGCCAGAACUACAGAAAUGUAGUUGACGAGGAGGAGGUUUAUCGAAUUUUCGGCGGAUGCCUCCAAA

- Variants of: B1
- assay_overview: self-cleavage kobs at 640 uM GlcN6P; higher = faster cleavage; RNA array
- measurement_conditions: with glucosamine-6-phosphate
This sample holds only a part of the variants without activity.
Please go through the items and note down their self-cleavage kobs at 640 uM GlcN6P.

Prompt line: Look up self-cleavage kobs at 640 uM GlcN6P of G38A A39C U57A and report it.
Response line: < 1e-05 s⁻¹

Prompt line: Look up self-cleavage kobs at 640 uM GlcN6P of A33G A42C and report it.
Response line: < 1e-05 s⁻¹

Prompt line: Look up self-cleavage kobs at 640 uM GlcN6P of A6C C10A G35A C58G C70G and report it.
Response line: 0.000553 s⁻¹

Prompt line: Look up self-cleavage kobs at 640 uM GlcN6P of A12G G59C G63C C67A and report it.
Response line: < 1e-05 s⁻¹

Prompt line: Look up self-cleavage kobs at 640 uM GlcN6P of C10G A36C and report it.
Response line: < 1e-05 s⁻¹

Prompt line: Look up self-cleavage kobs at 640 uM GlcN6P of C10A G35C G51U and report it.
Response line: < 1e-05 s⁻¹

Prompt line: Look up self-cleavage kobs at 640 uM GlcN6P of G7U A15U G51U C61U C67G and report it.
Response line: < 1e-05 s⁻¹

Prompt line: Look up self-cleavage kobs at 640 uM GlcN6P of U30G G43A U47G and report it.
Response line: < 1e-05 s⁻¹

Prompt line: Look up self-cleavage kobs at 640 uM GlcN6P of G13U G44U C68U and report it.
Response line: < 1e-05 s⁻¹

Prompt line: Look up self-cleavage kobs at 640 uM GlcN6P of G32A G37C and report it.
Response line: < 1e-05 s⁻¹

Prompt line: Look up self-cleavage kobs at 640 uM GlcN6P of G35A U57A and report it.
Response line: < 1e-05 s⁻¹

Prompt line: Look up self-cleavage kobs at 640 uM GlcN6P of G9U U31A C71U and report it.
Response line: < 1e-05 s⁻¹

Prompt line: Look up self-cleavage kobs at 640 uM GlcN6P of U31C G35C and report it.
Response line: < 1e-05 s⁻¹

Prompt line: Look up self-cleavage kobs at 640 uM GlcN6P of G38U G60U and report it.
Response line: < 1e-05 s⁻¹

Prompt line: Look up self-cleavage kobs at 640 uM GlcN6P of C19A C34G A39C and report it.
Response line: < 1e-05 s⁻¹

Prompt line: Look up self-cleavage kobs at 640 uM GlcN6P of A33G G41U C50U C71U and report it.
Response line: < 1e-05 s⁻¹

Prompt line: Look up self-cleavage kobs at 640 uM GlcN6P of A14U G29A A52C C61U C68A C71G and report it.
Response line: 9.79e-05 s⁻¹

Prompt line: Look up self-cleavage kobs at 640 uM GlcN6P of C16A C50G U55C G63C C70G and report it.
Response line: 0.00119 s⁻¹

Prompt line: Look up self-cleavage kobs at 640 uM GlcN6P of G37U A48C C68U and report it.
Response line: < 1e-05 s⁻¹

Prompt line: Look up self-cleavage kobs at 640 uM GlcN6P of U17G and report it.
Response line: 0.00535 s⁻¹

Prompt line: Look up self-cleavage kobs at 640 uM GlcN6P of A33C U69C and report it.
Response line: < 1e-05 s⁻¹

Prompt line: Look up self-cleavage kobs at 640 uM GlcN6P of G13U A33U U57C and report it.
Response line: < 1e-05 s⁻¹
